Recorded values, source PubChem BioAssay AID2060512.

System: 186277-243-T-J2-PDC complex spheroid viability;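 further: spheroids exposed to drugs for 7 days; 100% = DMSO vehicle control viability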
Test: Anticancer human tumor 186277-243-T-J2-PDC patient-derived colon adenocarcinoma cell line growth inhibition [GQUAD]; active means viability on the fitted dose curve at most 10% of control; inactive means the rest
Conditions: second compound 1 µM; first compound 3.16 µM
Outcomes: 1.0 = active, 0.0 = inactive

{"compound": "COc1ccc([C@@H](O)c2cc(-c3ncnc4cc(N5CCOCC5)ccc34)c(F)cc2Cl)nn1 + Cc1[nH]c2ccc(F)cc2c1-c1nc2c3cccnc3c3ncccc3c2[nH]1", "class": 0.0}
{"compound": "COc1cc(C2c3cc4c(cc3C(OC3OC5COC(C)OC5C(O)C3O)C3COC(=O)C23)OCO4)cc(OC)c1O (stereo not drawn) + Cc1[nH]c2ccc(F)cc2c1-c1nc2c3cccnc3c3ncccc3c2[nH]1", "class": 0.0}
{"compound": "CC1COCCN1c1cc(-c2ccnn2C)c2ccnc(-c3ccn[nH]3)c2n1 (stereo not drawn) + Cc1[nH]c2ccc(F)cc2c1-c1nc2c3cccnc3c3ncccc3c2[nH]1", "class": 1.0}
